B1: ZNF649 (parent)
chain: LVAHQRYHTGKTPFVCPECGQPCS

Variants of: B1
Assay: protein stability index of a GFP-peptide fusion (GPS, HEK-293T) (PSI 1-6); higher = more stable;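 further: lentivirally expressed fusions sorted by FACS into six bins by GFP to DsRed ratio, PSI derived from sequencing read proportions per bin multiplied by bin number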
Conditions: c terminus: a fixed tail appended
Please use Met whenever protein stability index is not below 3, and Not met whenever it is.

# sequenceEntry, classification
measured = [
    ("LVFHQRYHTGKTPFVCPECGQPCS", "Not met"),
    ("LVAHQRYHTGKTPFVCEECGQPCS", "Met"),
    ("LVAHQRYHTMKTPFVCPECGQPCS", "Met"),
    ("LVAHQRYHTGKTPFVCPLCGQPCS", "Not met"),
    ("LVAHQRYITGKTPFVCPECGQPCS", "Met"),
]

q: Check the entry `LVAHQRYHTGKIPFVCPECGQPCS` : does protein stability index equal or exceed 3?
a: Met

q: Check the entry `LVAHQRYHTGKTPFVCPECGNPCS` : does protein stability index equal or exceed 3?
a: Not met

q: Check the entry `LVAHQRYHTCKTPFVCPECGQPCS` : does protein stability index equal or exceed 3?
a: Met

q: Check the entry `LVAHQRYHTGKTPFVCPECGQKCS` : does protein stability index equal or exceed 3?
a: Met

q: Check the entry `LVAHQRMHTGKTPFVCPECGQPCS` : does protein stability index equal or exceed 3?
a: Met

q: Check the entry `LVAHQAYHTGKTPFVCPECGQPCS` : does protein stability index equal or exceed 3?
a: Met

q: Check the entry `LVAHQRYHTGKTPRVCPECGQPCS` : does protein stability index equal or exceed 3?
a: Met

q: Check the entry `LVAHQRYHCGKTPFVCPECGQPCS` : does protein stability index equal or exceed 3?
a: Not met

q: Check the entry `LVAHERYHTGKTPFVCPECGQPCS` : does protein stability index equal or exceed 3?
a: Met

q: Check the entry `LVAHQRYHTGKTPFVCPECGQPCG` : does protein stability index equal or exceed 3?
a: Met

q: Check the entry `LVAHQRYHTGKTPFVCLECGQPCS` : does protein stability index equal or exceed 3?
a: Not met

q: Check the entry `LVAHQRYHTGKTCFVCPECGQPCS` : does protein stability index equal or exceed 3?
a: Not met

q: Check the entry `LVAHQRYHTGKTPMVCPECGQPCS` : does protein stability index equal or exceed 3?
a: Met

q: Check the entry `LVAHQRYHTGKTPFVCFECGQPCS` : does protein stability index equal or exceed 3?
a: Not met

q: Check the entry `LVAHQRYHTGKTPFVCHECGQPCS` : does protein stability index equal or exceed 3?
a: Not met

q: Check the entry `YVAHQRYHTGKTPFVCPECGQPCS` : does protein stability index equal or exceed 3?
a: Not met

q: Check the entry `LVAHQRYHTGKTPFVCPECGQQCS` : does protein stability index equal or exceed 3?
a: Met
